Target chain: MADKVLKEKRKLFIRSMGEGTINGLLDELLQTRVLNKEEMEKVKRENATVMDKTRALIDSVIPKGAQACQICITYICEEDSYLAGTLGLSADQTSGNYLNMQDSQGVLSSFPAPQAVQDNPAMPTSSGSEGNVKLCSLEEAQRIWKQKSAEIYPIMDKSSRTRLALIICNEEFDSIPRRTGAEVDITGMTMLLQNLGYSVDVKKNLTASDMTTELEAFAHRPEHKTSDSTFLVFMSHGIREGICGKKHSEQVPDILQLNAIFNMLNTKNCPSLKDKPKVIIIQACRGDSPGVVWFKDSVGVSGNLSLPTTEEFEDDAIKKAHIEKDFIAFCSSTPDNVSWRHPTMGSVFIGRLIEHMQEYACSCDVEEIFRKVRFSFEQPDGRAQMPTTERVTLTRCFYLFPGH
Please assign NOT MET whenever IC50 is at or above 60 nM, and MET whenever it is below.

molecule="O=C1C[C@H](NC(=O)[C@@H]2CCc3nc4ccccc4c(=O)n32)C(O)O1 (stereo not given in full)" qualitative_label="NOT MET"
molecule="O=C1C[C@H](NC(=O)[C@@H]2CCc3nc4cc(-c5ccccc5Cl)nc-4c(O)n32)C(O)O1 (stereo not given in full)" qualitative_label=MET
molecule="O=C1C[C@H](NC(=O)[C@@H]2CCc3nc4cc(-c5ccccc5)nc-4c(O)n32)C(O)O1 (stereo not given in full)" qualitative_label="NOT MET"
molecule="O=C1C[C@H](NC(=O)[C@@H]2CCc3nc4cc(-c5cccc(Cl)c5)nc-4c(O)n32)C(O)O1 (stereo not given in full)" qualitative_label=MET
molecule="CC(C)(C)c1cc2nc3n(c(O)c-2n1)[C@H](C(=O)N[C@H]1CC(=O)OC1O)CC3 (stereo not given in full)" qualitative_label="NOT MET"

Source listed as ChEMBL document CHEMBL1141062.
